Consider the following molecules and their measured IC50 readings.
System: 485176-168-R4-J1-PDC complex spheroid growth;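 further: spheroids exposed to compounds for seven days before readout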
Experiment: Anticancer human tumor 485176-168-R4-J1-PDC patient-derived pancreatic adenocarcinoma cell line growth inhibition [RAS]
Settings: curve of first compound; second compound 0.000949 µM

{"columns": ["molecule", "value reported"],
 "data": [
  ["CC(=O)OC12COC1CC(O)C1(C)C(=O)C(O)C3=C(C)C(OC(=O)C(O)C(NC(=O)OC(C)(C)C)c4ccccc4)CC(O)(C(OC(=O)c4ccccc4)C21)C3(C)C (configuration not stated) + CCn1c(-c2cccnc2C(C)OC)c2c3cc(ccc31)N1CCOC(CC(NC(=O)C(C(C)C)N(C)C(=O)C3(F)CCN(C(=O)C#CC(C)(C)N(C)C)CC3)C(=O)N3CCCC(N3)C(=O)OCC(C)(C)C2)C1", "< 31.6 nM"]
]}

IC50 reported for this molecule CCN1CCN(Cc2ccc(Nc3ncc(F)c(-c4cc(F)c5nc(C)n(C(C)C)c5c4)n3)nc2)CC1 + CCn1c(-c2cccnc2C(C)OC)c2c3cc(ccc31)N1CCOC(CC(NC(=O)C(C(C)C)N(C)C(=O)C3(F)CCN(C(=O)C#CC(C)(C)N(C)C)CC3)C(=O)N3CCCC(N3)C(=O)OCC(C)(C)C2)C1 : > 1000 nM
